assay: Permeability in CALU-3 cells; type: in vitro ADME; conditions: human; apical-to-basal, CALU-3 monolayers, pH 7.4, 37° C., 10 μM compound

| molecular-string | Papp A→B at 90 min, 10 μM, ×10⁻⁶ cm/s |
| --- | --- |
| CCn1c(CNC(=O)c2nc(Cl)c(N)nc2N)[n+](CC)c2cc(C(=O)N3CCOCC3)c(N3CCOCC3)cc21 | 0.09 |
| CC[n+]1c(CNC(=O)c2nc(Cl)c(N)nc2N)n(C[C@H](C)O)c2cc(N(C)C)c(C(=O)N3CCN(C(=O)OC(C)(C)C)CC3)cc21.O=C([O-])C(F)(F)F | 0.08 |
| CCCCCCN1CCC(NC(=O)c2cc3c(cc2F)n(CC)c(CNC(=O)c2nc(Cl)c(N)nc2N)[n+]3CC)CC1.O=CO.O=C[O-] | 0.3 |
